Collected Dmax values appear next to each entry.
- Tgt: ER (Homo sapiens (Human))
- Test Name: In-cell western (ICW) ER degradation assay in T47D cells
- Assay type: cell-based
- Condition Summary: maximal ER degradation, 16 hrs
- Method: ERa degradative activity of compounds can be assessed in MCF-7 and T47D Cells. MCF-7 and T47D cell are seeded and are subsequently treated with the compounds at certain concentrations (e.g., 0.02 to 300 nM). DMSO can be used as vehicle control. Cells are fixed and are blocked with Intercept (PBS) Blocking Buffer (e.g., Li-COR, Odyssey Blocking Buffer), and are stained with ER (e.g., 1:500, Cell signaling) primary antibody for overnight at cold room. […]
Endpoint: Dmax

[[record]]
molecule = "O=C1CCC(Nc2ccc(N3CCN(CC4CC5(CCN(c6ccc([C@H]7c8ccc(O)cc8OC[C@H]7c7ccccc7)cc6)CC5)C4)CC3)c(F)c2)C(=O)N1 (single isomer, unassigned) [Compound A51]"
result = "25 to 50%"

[[record]]
molecule = "COc1cccc([C@H]2COc3cc(O)ccc3[C@H]2c2ccc(N3CCC(CN4CCN5c6ccc7c(c6OC[C@H]5C4)CN(C4CCC(=O)NC4=O)C7=O)CC3)cc2)c1 (single isomer, unassigned) [Compound A33]"
result = "50 to 75%"


---

- Tgt: ER (Homo sapiens (Human))
- Test Name: In-cell western (ICW) ER degradation assay in T47D cells
- Type: cell-based
- Condition Summary: maximal ER degradation, 16 hrs
Structures can show the parent of a compound that is named as a salt.
Endpoint: Dmax

[[record]]
compound = "O=C1CCC(N2Cc3cc4c(cc3C2=O)OCC42CCN(CC3CC4(CCN(c5ccc([C@@H]6c7ccc(O)cc7OC[C@@H]6c6ccccc6)cc5)CC4)C3)CC2)C(=O)N1 (stereo partly shown)"
result = "50 to 75%"

[[record]]
compound = "O=C1CCC(Nc2ccc(C34CCN(CC5COC6(CCN(c7ccc([C@@H]8c9ccc(O)cc9OC[C@@H]8c8ccccc8)cc7F)CC6)C5)CC3C4(F)F)cc2)C(=O)N1 (stereo partly shown)"
result = "50 to 75%"

[[record]]
compound = "COc1cc(N2CCC(CN3CCN4c5cc6c(cc5OC[C@H]4C3)C(=O)N(C3CCC(=O)NC3=O)C6)CC2)ccc1[C@H]1c2ccc(O)cc2OC[C@H]1c1ccccc1 (stereo partly shown)"
result = "25 to 50%"

[[record]]
compound = "O=C1CCC(N2Cc3cc4c(cc3C2=O)CN(C(=O)CN2CCC3(CC2)CN(c2ccc([C@@H]5c6ccc(O)cc6OC[C@@H]5c5ccccc5)cc2)C3)C4)C(=O)N1 (stereo partly shown)"
result = "50 to 75%"

[[record]]
compound = "O=C1CC[C@@H](Nc2ccc(C3CCN(CC4CCC5(CC4)CN(c4ccc([C@@H]6c7ccc(O)cc7OC[C@@H]6c6ccccc6)cc4)C5)CC3)cc2)C(=O)N1 (single isomer, unassigned)"
result = "50 to 75%"

[[record]]
compound = "O=C1CCC(N2Cc3cc4c(cc3C2=O)CN(C(=O)CN2CC3(CCN(c5ccc([C@H]6c7ccc(O)cc7OC[C@H]6c6ccccc6)cc5)CC3)C2)C4)C(=O)N1 (stereo partly shown) [Compound A56, formate]"
result = "≥ 75%"

[[record]]
compound = "COc1cc(N2CCC(CN3CCN4c5ccc6c(c5OC[C@@H]4C3)CN([C@@H]3CCC(=O)NC3=O)C6=O)CC2)c(F)cc1[C@@H]1c2ccc(O)cc2OC[C@@H]1c1ccccc1 (single isomer, unassigned)"
result = "≥ 75%"

[[record]]
compound = "COC[C@H](C(=O)N1Cc2cc3c(cc2C1)C(=O)N(C1CCC(=O)NC1=O)C3)N1CCC2(CCN(c3ccc([C@@H]4c5ccc(O)cc5OC[C@@H]4c4ccccc4)cc3)CC2)CC1 (single isomer, unassigned)"
result = "< 25%"

[[record]]
compound = "O=C1CCC(Nc2ccc3c(c2)OC[C@H]2CN(CC4CC5(CCN(c6ccc([C@@H]7c8ccc(O)cc8OC[C@@H]7c7ccccc7)cc6)CC5)C4)CCN32)C(=O)N1 (stereo partly shown)"
result = "50 to 75%"

[[record]]
compound = "O=C1CC[C@@H](N2Cc3c(ccc4c3OCC43CCN(CC4CC5(CCN(c6ccc([C@H]7c8ccc(O)cc8OC[C@H]7c7ccccc7)cc6)CC5)C4)CC3)C2=O)C(=O)N1"
result = "25 to 50%"


---

- Tgt: ER (Homo sapiens (Human), UniProt P03372)
- Sequence (P03372 whole entry): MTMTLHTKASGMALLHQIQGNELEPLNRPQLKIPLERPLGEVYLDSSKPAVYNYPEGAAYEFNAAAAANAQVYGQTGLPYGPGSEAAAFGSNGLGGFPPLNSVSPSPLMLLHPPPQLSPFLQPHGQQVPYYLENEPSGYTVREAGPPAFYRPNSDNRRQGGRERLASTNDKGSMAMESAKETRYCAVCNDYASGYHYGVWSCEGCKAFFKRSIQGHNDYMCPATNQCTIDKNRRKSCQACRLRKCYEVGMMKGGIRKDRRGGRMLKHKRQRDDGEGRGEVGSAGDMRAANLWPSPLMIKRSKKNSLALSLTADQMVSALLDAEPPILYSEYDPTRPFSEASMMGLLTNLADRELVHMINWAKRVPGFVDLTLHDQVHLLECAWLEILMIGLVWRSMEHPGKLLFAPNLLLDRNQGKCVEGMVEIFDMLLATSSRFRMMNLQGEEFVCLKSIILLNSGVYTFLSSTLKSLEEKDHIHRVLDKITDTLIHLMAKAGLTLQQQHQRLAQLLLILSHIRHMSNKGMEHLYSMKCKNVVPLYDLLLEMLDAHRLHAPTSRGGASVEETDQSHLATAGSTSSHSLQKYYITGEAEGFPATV
- Test Name: In-cell western (ICW) ER degradation assay in MCF-7 cells
- Type: cell-based
- Condition Summary: ER degradation, MCF7, 16 hrs
Endpoint: DC50

[[record]]
compound = "O=C1CC[C@H](N2Cc3c(ccc4c3OC[C@H]3CN(CC5CC6(CCN(c7ccc([C@@H]8c9ccc(O)cc9OC[C@@H]8c8ccccc8)cc7)CC6)C5)CCN43)C2=O)C(=O)N1 (single isomer, unassigned) [Compound A37]"
endpoint = "DC50"
result = "1 to 10 nM"

[[record]]
compound = "O=C1CC[C@@H](Nc2ccc(C3CCN(CC4CCC5(CC4)CN(c4ccc([C@H]6c7ccc(O)cc7OC[C@H]6c6ccccc6)cc4)C5)CC3)cc2)C(=O)N1 (single isomer, unassigned)"
endpoint = "DC50"
result = "< 1 nM"


---

- Tgt: ER (Homo sapiens (Human), UniProt P03372)
- Test Name: In-cell western (ICW) ER degradation assay in MCF-7 cells
- Type: cell-based
- Condition Summary: maximal ER degradation, MCF7, 16 hrs
Endpoint: MCF7 Dmax %

[[record]]
compound = "O=C1CCC(N2Cc3cc(N4CCN(CC5CC6(CCN(c7ccc([C@@H]8c9ccc(O)cc9OC[C@@H]8c8ccccc8)cn7)CC6)C5)CC4)ccc3C2=O)C(=O)N1 (single isomer, unassigned) [Compound A92]"
endpoint = "MCF7 Dmax %"
result = "B (“B”: >50% and <75%)"

[[record]]
compound = "O=C1CCC(N2Cc3cc(N4CCN(CC5CC6(CCN(c7ccc([C@@H]8c9ccc(O)cc9OC[C@@H]8c8ccccc8)cn7)CC6)C5)CC4)ccc3C2=O)C(=O)N1 (single isomer, unassigned) [Compound A67]"
endpoint = "MCF7 Dmax %"
result = "D (“D”; <25%)"

[[record]]
compound = "COc1cc(N2CCC3(CC2)CC(CN2CCC4(CC2)COc2c4ccc4c2CN(C2CCC(=O)NC2=O)C4=O)C3)c(F)cc1[C@H]1c2ccc(O)cc2OC[C@H]1c1ccccc1 (stereo partly drawn) [Compound A131]"
endpoint = "MCF7 Dmax %"
result = "B (“B”: >50% and <75%)"

[[record]]
compound = "O=C1CCC(NC(=O)c2ccc(N3CCC(CN4CCN(c5ccc([C@H]6c7ccc(O)cc7OC[C@H]6c6ccccc6)cc5)CC4)CC3)cn2)C(=O)N1 (single isomer, unassigned) [Compound A128]"
endpoint = "MCF7 Dmax %"
result = "B (“B”: >50% and <75%)"

[[record]]
compound = "O=C1CCC(N2Cc3c(ccc4c3OC[C@H]3CN(CC5CC6(CCN(c7ccc([C@@H]8c9ccc(O)cc9OC[C@@H]8c8ccccc8)cn7)CC6)C5)CCN43)C2=O)C(=O)N1 (single isomer, unassigned) [Compound A66]"
endpoint = "MCF7 Dmax %"
result = "B (“B”: >50% and <75%)"

[[record]]
compound = "O=C1CCC(N2Cc3cc4c(cc3C2=O)OC[C@@H]2CN(CC3CCC5(CC3)CN(c3ccc([C@@H]6c7ccc(O)cc7OC[C@@H]6c6ccccc6)cc3)C5)CCN42)C(=O)N1 (single isomer, unassigned) [Compound A58]"
endpoint = "MCF7 Dmax %"
result = "C (“C”: 25%-50%)"

[[record]]
compound = "O=C1CC[C@@H](N2Cc3cc4c(cc3C2=O)OC[C@@H]2CN(C[C@H]3COC5(CCN(c6ccc([C@H]7c8ccc(O)cc8OC[C@H]7c7ccccc7)cc6)CC5)C3)CCN42)C(=O)N1"
endpoint = "MCF7 Dmax %"
result = "B (“B”: >50% and <75%)"

[[record]]
compound = "O=C1CCC(N2Cc3cc4c(cc3C2=O)OC[C@@H]2CN(CC3CCC5(CC3)CN(c3ccc([C@@H]6c7ccc(O)cc7OC[C@@H]6c6ccccc6)cc3)C5)CCN42)C(=O)N1 (stereo partly drawn) [Compound A63]"
endpoint = "MCF7 Dmax %"
result = "D (“D”; <25%)"

[[record]]
compound = "O=C1CCC(NC(=O)c2ccc(N3CCC(CN4CCN(c5ccc([C@H]6c7ccc(O)cc7OC[C@H]6c6ccccc6)cc5)CC4)CC3)cn2)C(=O)N1 (stereo partly drawn) [Compound A129]"
endpoint = "MCF7 Dmax %"
result = "C (“C”: 25%-50%)"

[[record]]
compound = "O=C1CCC(N2Cc3cc(N4CCN(CC5CC6(CCN(c7ccc([C@@H]8c9ccc(O)cc9OC[C@@H]8c8ccccc8)cn7)CC6)C5)CC4)ccc3C2=O)C(=O)N1 (single isomer, unassigned) [Compound A68]"
endpoint = "MCF7 Dmax %"
result = "B (“B”: >50% and <75%)"

[[record]]
compound = "COc1cc(N2CCC(CN3CCN(c4ccc(C(=O)NC5CCC(=O)NC5=O)nc4)CC3)CC2)c(F)cc1[C@H]1c2ccc(O)cc2OC[C@H]1c1ccccc1 (stereo partly drawn) [Compound A109]"
endpoint = "MCF7 Dmax %"
result = "C (“C”: 25%-50%)"

[[record]]
compound = "O=C1CCC(N2Cc3cc4c(cc3C2=O)CN(C(=O)CN2CC3(CCN(c5ccc([C@H]6c7ccc(O)cc7OC[C@H]6c6ccccc6)cc5)CC3)C2)C4)C(=O)N1 (single isomer, unassigned)"
endpoint = "MCF7 Dmax %"
result = "D (“D”; <25%)"

[[record]]
compound = "O=C1CC[C@H](N2Cc3c(ccc4c3OC[C@H]3CN(CC5CC6(CCN(c7ccc([C@@H]8c9ccc(O)cc9OC[C@@H]8c8ccccc8)cc7)CC6)C5)CCN43)C2=O)C(=O)N1 (single isomer, unassigned) [Compound A90]"
endpoint = "MCF7 Dmax %"
result = "B (“B”: >50% and <75%)"

[[record]]
compound = "O=C1CC[C@H](N2Cc3c(ccc4c3OC[C@H]3CN(CC5CC6(CCN(c7ccc([C@@H]8c9ccc(O)cc9OC[C@@H]8c8ccccc8)cc7)CC6)C5)CCN43)C2=O)C(=O)N1 (single isomer, unassigned) [Compound A37]"
endpoint = "MCF7 Dmax %"
result = "C (“C”: 25%-50%)"

[[record]]
compound = "O=C1CCC(N2Cc3cc4c(cc3C2=O)OC[C@@H]2CN(CC3CCC5(CC3)CN(c3ccc([C@@H]6c7ccc(O)cc7OC[C@@H]6c6ccccc6)cc3)C5)CCN42)C(=O)N1 (stereo partly drawn) [Compound A53]"
endpoint = "MCF7 Dmax %"
result = "B (“B”: >50% and <75%)"

[[record]]
compound = "COc1cc(N2CCC(CN3CCN(c4ccc(C(=O)NC5CCC(=O)NC5=O)nc4)CC3)CC2)c(F)cc1[C@H]1c2ccc(O)cc2OC[C@H]1c1ccccc1 (stereo partly drawn) [Compound A110]"
endpoint = "MCF7 Dmax %"
result = "B (“B”: >50% and <75%)"

[[record]]
compound = "O=C1CCC(N2Cc3c(ccc4c3OC[C@H]3CN(CC5CC6(CCN(c7ccc([C@@H]8c9ccc(O)cc9OC[C@@H]8c8ccccc8)cn7)CC6)C5)CCN43)C2=O)C(=O)N1 (single isomer, unassigned) [Compound A65]"
endpoint = "MCF7 Dmax %"
result = "D (“D”; <25%)"

